The origin of these recorded values is patent EP1295874A2.

test system: Ritonavir-Resistant Mutant HIV Clones; test: microbe, parasite or virus in culture; format: cell-based; conditions: Human immunodeficiency virus 1, Virus Clone V82F; 0% Human Serum
For each of the molecules below, state its pEC50.
Answers are plain numbers, as −log10 of the molar value.

# molecule, pEC50
rows = [
    ("Cc1cccc(C)c1OCC(=O)N[C@@H](Cc1ccccc1)[C@@H](O)C[C@H](Cc1ccccc1)NC(=O)[C@H](C(C)C)N1CCCNC1=O [Example 2B]", 7.59),
]

Q. Any idea what its pEC50 is? The molecule is CC(C)c1nc(CN(C)C(=O)N[C@H](C(=O)N[C@@H](Cc2ccccc2)C[C@H](O)[C@H](Cc2ccccc2)NC(=O)OCc2cncs2)C(C)C)cs1 [Ritonavir]
A. 6.84
